- Target Entity: LC3A (recombinant, BLI) (human, UniProt Q9H492 1-121)
- Assay Info: BLI
Ends that are not written are not given here.
Quantity: Kd (µM)
Write it as a number; the unit µM goes unstated.

Incoming: Report Kd for SKDSSCDTDDFVMVPAQFPGDLVA (also: biotin, position not given here) [ULK1 LIR peptide (biotinylated, BLI)] please.
Outgoing: 5.9
